- tested-on: 2,3-epoxysqualene-lanosterol-cyclase (Rattus norvegicus, UniProt P48450)
- Construct: Measuring the in-vivo Activity in the Rat after Oral Administration; from tissue; host or cells: living rat; 2,3-epoxysqualene measured in the liver
- protocol-details: In-vivo activity in the rat after oral administration: 2,3-epoxysqualene level in the liver
- conditions-used: 0.3 mg/kg oral, 8 h after administration
endpoint: 2,3-epoxysqualene concentration in the liver (rat) (µg/g)
Number in µg/g, nothing else.

What does the data say about its 2,3-epoxysqualene concentration in the liver (rat)? Entry: CN(C)Cc1ccc([C@H]2CC[C@H](N(C)C(=O)Sc3ccc(Cl)cc3)CC2)cc1.Cl
112.6

Give the measured 2,3-epoxysqualene concentration in the liver (rat) of CN(C)Cc1ccc([C@H]2CC[C@H](N(C)C(=S)SCc3cccc(F)c3)CC2)cc1.Cl .
234.5

Would you mind telling me what 2,3-epoxysqualene concentration in the liver (rat) value was observed for CN(C)Cc1ccc([C@H]2CC[C@H](N(C)C(=O)Oc3ccc(Cl)cc3)CC2)cc1.Cl ?
180.0

---

- tested-on: 2,3-epoxysqualene-lanosterol-cyclase (Rattus norvegicus)
- Construct: Measuring the in-vivo Activity in the Rat after Oral Administration; from tissue; host or cells: living rat; 2,3-epoxysqualene measured in the liver
- Sequence (P48450 1-733): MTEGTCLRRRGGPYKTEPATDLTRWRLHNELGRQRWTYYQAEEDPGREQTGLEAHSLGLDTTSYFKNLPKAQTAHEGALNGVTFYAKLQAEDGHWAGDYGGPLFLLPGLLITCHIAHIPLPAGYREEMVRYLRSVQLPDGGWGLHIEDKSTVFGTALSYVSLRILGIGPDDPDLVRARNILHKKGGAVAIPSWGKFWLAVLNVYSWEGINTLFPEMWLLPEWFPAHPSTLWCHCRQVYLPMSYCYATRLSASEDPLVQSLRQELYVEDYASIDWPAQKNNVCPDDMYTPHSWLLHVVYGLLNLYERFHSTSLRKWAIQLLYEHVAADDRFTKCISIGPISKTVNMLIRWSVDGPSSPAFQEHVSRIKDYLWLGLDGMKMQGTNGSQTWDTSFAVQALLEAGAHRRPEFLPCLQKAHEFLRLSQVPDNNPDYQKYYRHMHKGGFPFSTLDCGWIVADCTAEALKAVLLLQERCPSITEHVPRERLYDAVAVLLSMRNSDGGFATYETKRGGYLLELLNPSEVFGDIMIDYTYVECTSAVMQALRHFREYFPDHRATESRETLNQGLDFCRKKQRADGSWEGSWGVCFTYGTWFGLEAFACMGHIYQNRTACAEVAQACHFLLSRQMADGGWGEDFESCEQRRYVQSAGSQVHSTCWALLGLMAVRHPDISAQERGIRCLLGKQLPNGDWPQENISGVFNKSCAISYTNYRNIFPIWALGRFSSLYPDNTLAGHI
- protocol-details: In-vivo activity in the rat after oral administration: 2,3-epoxysqualene level in the liver
- conditions-used: 0.03 mg/kg oral, 3 h after administration
endpoint: 2,3-epoxysqualene concentration in the liver (rat) (µg/g)
Report the value in µg/g with no unit label.

Some solved cases for reference:
# mol-smiles, endpoint-result
data = [
    ("CN(C)Cc1ccc([C@H]2CC[C@H](N(C)C(=O)Oc3ccc(Cl)cc3)CC2)cc1.Cl", 39.0),
    ("CN(C)Cc1ccc([C@H]2CC[C@H](N(C)C(=S)SCc3ccc(F)cc3)CC2)cc1.Cl", 33.1),
    ("CN(C)Cc1ccc([C@H]2CC[C@H](N(C)C(=O)Oc3ccc(F)cc3)CC2)cc1.Cl", 38.2),
    ("CN(C)Cc1ccc([C@H]2CC[C@H](N(C)C(=O)Sc3ccc(Cl)cc3)CC2)cc1.Cl", 25.7),
]

Recorded 2,3-epoxysqualene concentration in the liver (rat) of CN(C)Cc1ccc([C@H]2CC[C@H](N(C)C(=S)SCc3cccc(F)c3)CC2)cc1.Cl , please.
24.5

Which 2,3-epoxysqualene concentration in the liver (rat) value is on record for CN(C)Cc1ccc([C@H]2CC[C@H](N(C)C(=S)Oc3ccc(Cl)cc3)CC2)cc1.Cl ?
12.8

Sample CN(C)Cc1ccc([C@H]2CC[C@H](N(C)C(=S)Sc3ccc(Cl)cc3)CC2)cc1 — what was its 2,3-epoxysqualene concentration in the liver (rat)?
11.8

These data points were gathered from patent US20020019536A1.
